# credit: PubChem BioAssay (NCI)

- System: NCI-H226 lung
- assay_name: NCI-60 one-dose screen, 48 h (100 = growth as untreated, 0 = no growth, -100 = all killed)
- condition_parameters: 10 µM unless noted
Compounds without any hit were thinned out: in the full panel of roughly 83,000, 20% have a hit. Activity calls are given as the source filed them. Rule for the calls: active = growth percent below 10; inactive = the rest.
parameter_measured: growth

[[record]]
compound = "CC(C)(C)OC(=O)N1CC(Cn2cc(C(F)(F)F)c3c(Cl)ncnc32)C1"
parameter_measured = "growth"
data_value = "63.8% (inactive)"

[[record]]
compound = "CNCCCOc1c(Br)cc(CCNC(=O)/C(Cc2cc(Br)c(OC)c(Br)c2)=N/O)cc1Br"
parameter_measured = "growth"
data_value = "75.1% (inactive)"

[[record]]
compound = "O=c1c2ccccc2sc2c(NCCN3CCOCC3)nc3ccccc3c12"
parameter_measured = "growth"
data_value = "59.2% (inactive)"

[[record]]
compound = "CC12CCC3C(CCC4CC(O)CCC43C)C1C/C(=C/O)C(=O)O2 (stereo not drawn)"
parameter_measured = "growth"
data_value = "96.6% (inactive)"

[[record]]
compound = "O=c1c2ccccc2[nH]n1Cc1ccc2c(c1)OCO2"
parameter_measured = "growth"
data_value = "92.6% (inactive)"

[[record]]
compound = "c1coc(CSc2ncnc3nc[nH]c23)c1"
parameter_measured = "growth"
data_value = "101% (inactive)"

[[record]]
compound = "CCCCCn1ncc(-c2c(O)c(O)cc3c(O)c(-c4c(C)cc5c(-c6cnn(CCCCC)n6)c(O)c(O)cc5c4O)c(C)cc23)n1"
parameter_measured = "growth"
data_value = "-3.01% (active)"

[[record]]
compound = "Cc1cc(N2CCOCC2)nc(N(CCNc2ccnc3cc(Cl)ccc23)Cc2ccco2)n1"
parameter_measured = "growth"
data_value = "60.5% (inactive)"

[[record]]
compound = "CN1CCN(C(=O)/C=C/c2ccc([N+](=O)[O-])o2)CC1"
parameter_measured = "growth"
data_value = "110% (inactive)"

[[record]]
compound = "COc1ccc(-c2[nH]c3ccccc3c2/C=C(\\C#N)S(=O)(=O)c2ccccc2)cc1"
parameter_measured = "growth"
data_value = "65.2% (inactive)"

[[record]]
compound = "CC(=O)Cc1cccnc1"
parameter_measured = "growth"
data_value = "95.4% (inactive)"

[[record]]
compound = "Cc1[nH]n(C(=O)c2ccncc2)c(=O)c1N=Nc1ccc(S(=O)(=O)Nc2ccncn2)cc1"
parameter_measured = "growth"
data_value = "90% (inactive)"

[[record]]
compound = "O=[N+]([O-])c1ccccc1NC1c2ccccc2Oc2ccccc21"
parameter_measured = "growth"
data_value = "78% (inactive)"

[[record]]
compound = "COc1cc(CN(c2ccc(Cl)cc2)C2OC(=O)c3ccccc32)cc(OC)c1OC (stereo not drawn)"
parameter_measured = "growth"
data_value = "78.9% (inactive)"

[[record]]
compound = "C=CCn1c(SCC(=O)Nc2ccc(/C(C)=N\\O)cc2)nnc1-c1cc(-c2ccc(OC)cc2)nc2ccccc12"
parameter_measured = "growth"
data_value = "41.2% (inactive)"

[[record]]
compound = "COc1ccc(Cl)cc1NC(=O)c1cc2c([nH]1)-c1nc(NC(=O)C(C)(C)C)sc1CC2"
parameter_measured = "growth"
data_value = "57.7% (inactive)"

[[record]]
compound = "COc1cc(C(=O)NNC(=O)c2ccccc2C(=O)O)cc(OC)c1OC"
parameter_measured = "growth"
data_value = "74.6% (inactive)"

[[record]]
compound = "COc1ccccc1P(c1ccccc1OC)c1ccccc1OC"
parameter_measured = "growth"
data_value = "105% (inactive)"

[[record]]
compound = "Cc1ccc[n+](CC(=O)c2cccc3ccccc23)c1"
parameter_measured = "growth"
data_value = "96.2% (inactive)"

[[record]]
compound = "S=c1[nH]nc(Cn2c3ccccc3c3ccncc32)o1"
parameter_measured = "growth"
data_value = "107% (inactive)"

[[record]]
compound = "COc1ccc(C(=O)NC(=O)Nc2ccc3c(c2)NC(=O)/C3=C\\c2[nH]c(C)c(CCC(=O)O)c2C)c(F)c1"
parameter_measured = "growth"
data_value = "45% (inactive)"

[[record]]
compound = "COc1cc(NC(C)CCCN2C(=O)c3ccccc3C2=O)c2ncccc2c1OC (stereo not drawn)"
parameter_measured = "growth"
data_value = "98.2% (inactive)"

[[record]]
compound = "O=C(Nc1ccc(-n2ccc3c(NC(=O)c4ccccc4)nccc32)cc1)Nc1cccc(C(F)(F)F)c1"
parameter_measured = "growth"
data_value = "44.7% (inactive)"

[[record]]
compound = "Nc1nccc2c1ccn2-c1cccc(NC(=O)c2ccc(N3CCOCC3)c(C(F)(F)F)c2)c1"
parameter_measured = "growth"
data_value = "35.8% (inactive)"

[[record]]
compound = "O=C(Nc1ccc(-n2cc(-c3ccncc3)c(-c3ccc(O)c(Cl)c3)n2)cc1)c1cc(C(F)(F)F)cc(C(F)(F)F)c1"
parameter_measured = "growth"
data_value = "93.7% (inactive)"

[[record]]
compound = "CCCCCCCC(=O)SCC/C=C/[C@@H]1CC(=O)NCc2nc(cs2)C2=N[C@@](C)(CS2)C(=O)N[C@@H](C(C)C)C(=O)N1"
parameter_measured = "growth"
data_value = "3.64% (active)"

[[record]]
compound = "COc1ccc(-c2nn(-c3ccc(NC(=O)Nc4cc(C(F)(F)F)cc(C(F)(F)F)c4)cc3)cc2-c2ccncc2)cc1Cl"
parameter_measured = "growth"
data_value = "0.753% (active)"

[[record]]
compound = "CCC(N)(C(=O)O)c1ccc(F)cc1 (stereo not drawn)"
parameter_measured = "growth"
data_value = "106% (inactive)"


###

- Tested on: A498 renal
- assay_name: NCI-60 one-dose screen, 48 h (100 = growth as untreated, 0 = no growth, -100 = all killed)
- condition_parameters: 10 µM unless noted
- Protocol: Growth inhibition of the A498 human tumor cell line is measured as a screen for anti-cancer activity. Cells are grown in 96 well plates and exposed to the test compound for 48 hours. Compounds are tested at a single concentration, which is 10^-5 M for most compounds. The reported endpoint is percent growth (GI% or GIPRCNT), where numbers from 0 - 100% represent growth inhibition, and numbers from -100% - 0 represent cell death. For example, a value of 40 represents 60% growth inhibition. […]
The panel holds about 83,000 compounds, 20% with a hit somewhere; the sample as a whole holds those more often. Activity calls are given as the source filed them. How the source made its calls: active means growth percent below 10; inactive means the rest.
parameter_measured: growth

[[record]]
compound = "Nc1nc(-c2cc3c(cc2Cl)NC(=O)/C3=C/c2ccccc2)cs1"
parameter_measured = "growth"
data_value = "60% (inactive)"

[[record]]
compound = "CN(CCNCc1ccccn1)CCNCc1ccccn1"
parameter_measured = "growth"
data_value = "-91.9% (active)"

[[record]]
compound = "Cc1[nH]n(C(=O)c2ccncc2)c(=O)c1N=Nc1ccc(S(=O)(=O)Nc2ccncn2)cc1"
parameter_measured = "growth"
data_value = "111% (inactive)"

[[record]]
compound = "COc1ccc(-c2ccc(NC(=O)Nc3cccc(C(F)(F)F)c3)c(C)n2)cc1"
parameter_measured = "growth"
data_value = "52.1% (inactive)"

[[record]]
compound = "CC[C@H]1[C@@H]2C=C[C@@H]3[C@H]4C/C=C\\C(=O)NCCC[C@@H]5NC(=O)/C(=C(O)/C=C/[C@@H]4C[C@@H]3[C@H]2C[C@H]1C)C5=O"
parameter_measured = "growth"
data_value = "-18.4% (active)"

[[record]]
compound = "ClC1c2ccccc2CCc2ccccc21"
parameter_measured = "growth"
data_value = "102% (inactive)"

[[record]]
compound = "COC(=O)c1oc2c(C(C)=O)c(OCCN3CCCCC3)ccc2c1C"
parameter_measured = "growth"
data_value = "131% (inactive)"

[[record]]
compound = "COc1ccc(NC(=O)Nc2ccc(-c3ccc(OC)c(OC)c3)nc2C)cc1"
parameter_measured = "growth"
data_value = "71.9% (inactive)"

[[record]]
compound = "Clc1ccc(CN2COc3c(ccc4cccnc34)C2)cc1Cl"
parameter_measured = "growth"
data_value = "52.8% (inactive)"

[[record]]
compound = "Nc1nc(Nc2ccc(OCc3cccc(F)c3)cc2)c2c(n1)[nH]c1ccc(O)cc12"
parameter_measured = "growth"
data_value = "75.9% (inactive)"

[[record]]
compound = "COc1ccc(C2CC(c3cc(Cl)c(C)cc3OC)=NN2c2ccc(S(N)(=O)=O)cc2)cc1OC (stereo not given)"
parameter_measured = "growth"
data_value = "112% (inactive)"

[[record]]
compound = "COc1ccc(Cl)cc1NC(=O)c1cc2c(n1C)-c1nc(NC(=O)C(C)(C)C)sc1CC2"
parameter_measured = "growth"
data_value = "94% (inactive)"

[[record]]
compound = "CCCCCCCCCCCCCCCCCCNCc1ccc(Cl)cc1"
parameter_measured = "growth"
data_value = "-75.8% (active)"

[[record]]
compound = "CC1(C)N=C(N)N=C(N)N1c1ccc(F)c(C(F)(F)F)c1"
parameter_measured = "growth"
data_value = "93.1% (inactive)"

[[record]]
compound = "COc1cc(/C=C/C(=O)c2ccc(Oc3ncnc4ccccc34)cc2)cc(OC)c1OC"
parameter_measured = "growth"
data_value = "104% (inactive)"

[[record]]
compound = "O=S(=O)(O)c1ccc(F)cc1"
parameter_measured = "growth"
data_value = "101% (inactive)"

[[record]]
compound = "CC(CN(C)C)CN1c2ccccc2CCc2ccccc21 (stereo not given)"
parameter_measured = "growth"
data_value = "104% (inactive)"

[[record]]
compound = "CCC1S/C(=N\\N=C(/C)c2ccco2)N(c2ccccc2)C1=O (stereo not given)"
parameter_measured = "growth"
data_value = "160% (inactive)"

[[record]]
compound = "CC12CCC3C(CCC4CC(O)CCC43C)C1C/C(=C/O)C(=O)O2 (stereo not given)"
parameter_measured = "growth"
data_value = "62.7% (inactive)"

[[record]]
compound = "Nc1ncnc2c1c(C(F)(F)F)cn2[C@@H]1O[C@H](CO)[C@@H](O)[C@H]1O"
parameter_measured = "growth"
data_value = "-43.2% (active)"

[[record]]
compound = "Cc1cc(Nc2ccc(Cl)c(Cl)c2)nc(N)n1"
parameter_measured = "growth"
data_value = "78.8% (inactive)"

[[record]]
compound = "COc1ccc(C2=NN(C(=O)COc3ccc(Cl)cc3)C(O)(c3cc(F)c(Cl)cc3Cl)C2)cc1OC (stereo not given)"
parameter_measured = "growth"
data_value = "141% (inactive)"

[[record]]
compound = "Cc1ccc(-c2cn3cc([N+](=O)[O-])ccc3n2)cc1"
parameter_measured = "growth"
data_value = "57.6% (inactive)"

[[record]]
compound = "c1nc(SC2=NCCN2)c2[nH]cnc2n1"
parameter_measured = "growth"
data_value = "92.8% (inactive)"

[[record]]
compound = "CC1=C2C(=C[C@@](C)(CO)[C@@H]2OC(=O)N(C)CCN(C)C(=O)OC(C)(C)C)C(=O)[C@](C)(O)C12CC2"
parameter_measured = "growth"
data_value = "97% (inactive)"

